Source: the supplement of paper PMC8728848

# EXPERIMENTAL_TARGET: Fuc(a1-2)Gal(b1-4)GlcNAc(b1-3)GalNAc
# EXPERIMENT_DESCRIPTION: glycan array binding signal (z-score within array); higher = stronger binding
# RUN_PARAMETERS: glycan notation: IUPAC condensed, linker removed
Only a selection was taken, and the strongest signals are over-represented in it overall.
Each entry below lists one item and its recorded glycan array binding signal (z-score) value.
Keep it simple and answer with nothing but the number.

Some binders with recorded glycan array binding signal (z-score):
INSERT INTO results (binder, recorded_endpoint, result_number) VALUES
  ('his-Lectin-24A (Drosophila melanogaster) (protein) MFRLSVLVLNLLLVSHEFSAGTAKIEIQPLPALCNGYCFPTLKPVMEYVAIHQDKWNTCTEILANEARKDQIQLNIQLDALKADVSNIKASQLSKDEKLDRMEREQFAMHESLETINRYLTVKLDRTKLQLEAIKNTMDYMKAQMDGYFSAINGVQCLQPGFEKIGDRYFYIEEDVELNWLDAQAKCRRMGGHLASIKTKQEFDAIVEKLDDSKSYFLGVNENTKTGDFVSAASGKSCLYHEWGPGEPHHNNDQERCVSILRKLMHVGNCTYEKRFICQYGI', 'glycan array binding signal (z-score)', -0.522),
  ('PpFlo1 (Pichia pastoris) (protein) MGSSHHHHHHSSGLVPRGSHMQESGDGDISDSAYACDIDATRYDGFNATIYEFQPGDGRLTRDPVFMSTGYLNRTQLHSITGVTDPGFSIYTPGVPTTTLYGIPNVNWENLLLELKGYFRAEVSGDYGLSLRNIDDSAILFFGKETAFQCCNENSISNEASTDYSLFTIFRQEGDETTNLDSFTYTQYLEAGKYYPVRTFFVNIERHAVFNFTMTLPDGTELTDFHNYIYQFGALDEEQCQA', 'glycan array binding signal (z-score)', 9.01);

// query Tell me the measured glycan array binding signal (z-score) of CD72 ectodomain (Homo sapiens), P21854 (protein) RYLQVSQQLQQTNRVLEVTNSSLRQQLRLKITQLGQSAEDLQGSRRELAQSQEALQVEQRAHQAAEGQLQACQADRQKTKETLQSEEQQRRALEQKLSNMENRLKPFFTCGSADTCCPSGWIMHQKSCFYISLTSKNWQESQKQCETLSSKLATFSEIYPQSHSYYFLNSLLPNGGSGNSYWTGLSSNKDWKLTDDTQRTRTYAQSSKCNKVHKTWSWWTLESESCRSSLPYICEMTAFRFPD , please.
// result 1.08
